- target: T1, human B7-H4 extracellular domain (human, UniProt Q7Z7D3 29-258)
- T1 construct: For SPR it says only human B7-H4 ECD; also called Hu B7-H4 ECD; huB7-H4 ECD
- T1 sequence: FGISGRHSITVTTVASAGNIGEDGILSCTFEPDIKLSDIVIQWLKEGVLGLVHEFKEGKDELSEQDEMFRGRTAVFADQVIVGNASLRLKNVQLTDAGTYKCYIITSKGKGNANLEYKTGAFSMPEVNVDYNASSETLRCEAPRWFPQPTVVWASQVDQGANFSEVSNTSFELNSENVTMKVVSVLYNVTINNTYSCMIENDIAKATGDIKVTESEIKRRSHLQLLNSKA
- experiment.summary: competition ELISA on coated huB7-H4 ECD; competitor biotinylated 0058 (by series, not given)
pIC50: −log10 of the molar value.
Tag: Criterion met if measured pIC50 is not below 9, Criterion not met if it is.

// below: answered binders
B7-H4 antibody 0274 (antibody, human IgG1, kappa, V domains shown) VH: EVQLLESGGGLVQPGGSLRLSCAASGFTFSSYAMSWVRQAPGKGLEWVSAISGGGGSTYYADSVKGRFTISRDNSKNTLYLQMNSLRAEDTAVYYCARDIQWFGESTLFDYWGQGTLVTVSS VL: DIQMTQSPSSLSASVGDRVTITCRASQSIRSWLAWFQQKPGKAPKLLIYKASSLEGGVPSRFSGSGSGTDFTLTISSLQPEDFATYYCQQYNSYSRTFGQGTKVEIKR
Criterion not met
B7-H4 antibody 0565 (antibody, human IgG1, kappa, V domains shown) VH: EVQLLESGGGLVQPGGSLRLSCAASGFTFSSYAMSWVRQAPGKGLEWVSAISGGGGSTYYADSVKGRFTISRDNSKNTLYLQMNSLRAEDTAVYYCARDIQWFGRSTLFDYWGQGTLVTVSS VL: DIQLTQSPSTLSASVGDRVTITCRASQSIRSWLAWFQQKPGKAPKLLIYKASSLEGGVPSRFSGSGSGTEFTLTISSLQPDDFATYYCQQYNSYSRTFGQGTKVEIKR
Criterion not met
B7-H4 antibody 0562 (antibody, human IgG1, kappa, V domains shown) VH: EVQLLESGGGLVQPGGSLRLSCAASGFTFSSYAMSWVRQAPGKGLEWVSAISGGGGSTQYADSVKGRFTISRDNSKNTLYLQMNSLRAEDTAVYYCARDIQWFGESTLFDYWGQGTLVTVSS VL: DIQLTQSPSTLSASVGDRVTITCRASQSIRSWLAWFQQKPGKAPKLLIYKASSLEGGVPSRFSGSGSGTEFTLTISSLQPDDFATYYCQQYNSYSRTFGQGTKVEIKR
Criterion not met
B7-H4 antibody 0564 (antibody, human IgG1, kappa, V domains shown) VH: EVQLLESGGGLVQPGGSLRLSCAASGFTFSSYAMSWVRQAPGKGLEWVSAISGGGGSTYYADSVKGRFTISRDNSKNTLYLQMNSLRAEDTAVYYCARDIQWHGESTLFDYWGQGTLVTVSS VL: DIQLTQSPSTLSASVGDRVTITCRASQSIRSWLAWFQQKPGKAPKLLIYKASSLEGGVPSRFSGSGSGTEFTLTISSLQPDDFATYYCQQYNSYSRTFGQGTKVEIKR
Criterion not met
B7-H4 antibody 1117 (antibody, human IgG1, kappa, V domains shown) VH: EVQLLESGGGLVQPGGSLRLSCAASGFTFSSYAMSWVRQAPGKGLEWVSAISGGGGSTYYADSVKGRFTISRDNSKNTLYLQMNSLRAEDTAVYYCARDIQWYGESTLFDYWGQGTLVTVSS VL: DIQMTQSPSSLSASVGDRVTITCRASQSTRSWLAWLQQKPGKAPKLLIYKASSLESGVPSRFSGSGSGTDFTLTISSLQPEDFATYYCQQYGSYSRTFGQGTKVEIKR
Criterion met
B7-H4 antibody 0570 (antibody, human IgG1, kappa, V domains shown) VH: EVQLLESGGGLVQPGGSLRLSCAASGFTFSSYAMSWVRQAPGKGLEWVSAISGGGGSTYYADSVKGRFTISRDNSKNTLYLQMNSLRAEDTAVYYCARDIQWFGESTLFDYWGQGTLVTVSS VL: DIQMTQSPSSLSASVGDRVTITCRASQSTRSWLAWYQQKPGKAPKLLIYKASSLESGVPSRFSGSGSGTDFTLTISSLQPEDFATYYCQQYGSYSRTFGQGTKVEIKR
Criterion not met
B7-H4 antibody 1116 (antibody, human IgG1, kappa, V domains shown) VH: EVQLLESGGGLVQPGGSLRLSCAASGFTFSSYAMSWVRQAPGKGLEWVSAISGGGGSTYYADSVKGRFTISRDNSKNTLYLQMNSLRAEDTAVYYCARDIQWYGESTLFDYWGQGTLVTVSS VL: DIQMTQSPSSLSASVGDRVTITCRASQSTRSWLAWHQQKPGKAPKLLIYKASSLESGVPSRFSGSGSGTDFTLTISSLQPEDFATYYCQQYGSYSRTFGQGTKVEIKR
Criterion met

Next up:
## Input Given B7-H4 antibody 0563 (antibody, human IgG1, kappa, V domains shown) VH: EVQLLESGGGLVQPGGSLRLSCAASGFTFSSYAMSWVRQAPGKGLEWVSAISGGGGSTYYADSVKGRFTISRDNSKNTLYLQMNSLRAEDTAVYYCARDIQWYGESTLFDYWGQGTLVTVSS VL: DIQLTQSPSTLSASVGDRVTITCRASQSIRSWLAWFQQKPGKAPKLLIYKASSLEGGVPSRFSGSGSGTEFTLTISSLQPDDFATYYCQQYNSYSRTFGQGTKVEIKR , state whether its pIC50 is at least 9.
## Output Criterion not met
